- EXPERIMENTAL_TARGET: B-RAF V600E (Homo sapiens, UniProt P15056, V600E)
- Construct: expressed in transfected cells; host or cells: T-Rex 293 cells (Invitrogen #R71007)
- Sequence (P15056 whole entry V600E): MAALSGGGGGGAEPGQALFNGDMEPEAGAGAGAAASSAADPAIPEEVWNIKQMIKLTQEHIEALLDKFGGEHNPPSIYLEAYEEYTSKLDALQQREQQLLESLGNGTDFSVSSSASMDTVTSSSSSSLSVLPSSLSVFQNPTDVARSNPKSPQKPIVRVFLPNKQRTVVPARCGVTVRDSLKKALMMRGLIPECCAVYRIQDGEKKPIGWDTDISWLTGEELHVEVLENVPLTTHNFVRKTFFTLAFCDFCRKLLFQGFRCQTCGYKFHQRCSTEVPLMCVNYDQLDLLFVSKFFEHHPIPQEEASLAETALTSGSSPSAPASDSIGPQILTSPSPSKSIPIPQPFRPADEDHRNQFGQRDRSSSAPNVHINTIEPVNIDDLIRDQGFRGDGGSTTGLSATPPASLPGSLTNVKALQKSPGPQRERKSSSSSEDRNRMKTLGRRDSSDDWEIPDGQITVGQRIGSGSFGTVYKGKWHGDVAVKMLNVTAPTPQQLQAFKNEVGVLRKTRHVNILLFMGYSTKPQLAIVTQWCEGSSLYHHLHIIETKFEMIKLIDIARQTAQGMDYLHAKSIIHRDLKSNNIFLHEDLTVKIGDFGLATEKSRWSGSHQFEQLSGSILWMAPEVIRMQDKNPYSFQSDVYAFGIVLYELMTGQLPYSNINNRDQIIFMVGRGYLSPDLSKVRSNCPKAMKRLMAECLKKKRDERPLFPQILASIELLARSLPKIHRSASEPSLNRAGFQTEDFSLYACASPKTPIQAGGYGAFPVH
- ASSAY_METHOD_TEXT: Target protein degradation, assay C: T-Rex 293 cells, HA-BRAF_V600E, 384 well format
- Assay type: cell-based
- CONDITION: T-REx-293, Assay C, T-Rex 293 HA-BRAF_V600E cells, 24 hours, Examples 83-269
QUANTITY_NAME: Dmax

Given N#Cc1c(NS(=O)(=O)N2CC[C@@H](F)C2)ccc(F)c1Oc1ccc2ncn(-c3ccc(N4CC(C5CN(c6ccc7c(c6)C(=O)N(C6CCC(=O)NC6=O)C7=O)C5)C4)nc3)c(=O)c2c1 (some centres unmarked) [Example 158] , respond with its Dmax.
≤ 35%

Given CCN(C)S(=O)(=O)Nc1ccc(F)c(Oc2ccc3ncn(-c4ccc(N5CCN(CC6CN(c7ccc8c(c7)CN(C7CCC(=O)NC7=O)C8=O)C6)CC5)cc4)c(=O)c3c2)c1C#N (centres unmarked) [Example 181] , respond with its Dmax.
35 to 70%

Given N#Cc1c(NS(=O)(=O)N2CC[C@@H](F)C2)ccc(F)c1Oc1ccc2ncn(-c3cnc(N4CCN(CCN5CCN(c6ccc(C7CCC(=O)NC7=O)cc6F)CC5)CC4)nc3)c(=O)c2c1 (some centres unmarked) [Example 175] , respond with its Dmax.
35 to 70%

Given N#Cc1c(NS(=O)(=O)N2CC[C@@H](F)C2)ccc(F)c1Oc1ccc2ncn(-c3ccc(N4CC(CN5CCN(C6CCN(c7ccc8c(c7)CN(C7CCC(=O)NC7=O)C8=O)CC6)CC5)C4)cc3)c(=O)c2c1 (single isomer, unassigned) [Example 197] , respond with its Dmax.
≤ 35%

Given Cc1c(NS(=O)(=O)N2CC[C@@H](F)C2)ccc(F)c1Oc1ccc2ncn(-c3ccc(N4CCN(CC5CCN(c6ccc7c(c6)CN(C6CCC(=O)NC6=O)C7=O)CC5)CC4)cc3)c(=O)c2c1 (some centres unmarked) [Example 210] , respond with its Dmax.
35 to 70%
